Data origin: paper PMC7986984

- Type: in vivo, mice
- measurement_conditions: Plasma; Chronic Synbiotic; mice, bolus by oral gavage, 0.25-24 h; n = 6 +/- SEM
log10 Cmax overview
readout: log10 Cmax (log10 of the value in pg/mL)

compound	log10 Cmax
Oc1cc(O)c2c(c1)OC(c1ccc(O)c(O)c1)C(O)C2 (centres unmarked)	0.99
Oc1ccc(/C=C/c2cc(O)cc(O)c2)cc1 [RSV, t-Resveratrol (−)]	4.20
COc1cc(CCC(=O)O)ccc1O	0.89
Oc1cc(O)c2c(c1)O[C@H](c1ccc(O)c(O)c1)[C@H](O)[C@H]2c1c(O)cc(O)c2c1O[C@H](c1ccc(O)c(O)c1)[C@H](O)C2	0.43
COc1cc(/C=C/C(=O)O)ccc1O	1.35
